// provenance: patent US5773424A

assay: Toxicity of compounds, MTT assay; assay type: cell-based, human; details: human, foreskin fibroblasts
REPORTED ENDPOINT: viability at 48 h, 25 µM (%)
Please give a number only; it is taken to be in %.

### Prompt Bench note: what viability at 48 h, 25 µM did O=[N+]([O-])c1ccc(CSc2ncnc3c2ncn3[C@@H]2O[C@H](CO)[C@@H](O)[C@H]2O)cc1 show?
### Response 96.3

---

The following compounds are listed with their measured viability at 48 h, 10 µM values.
assay: Toxicity of compounds, MTT assay; assay type: cell-based, human; conditions: human, foreskin fibroblasts; 10 μM; MTT, 48 hours; read-out: percent survival of uninfected human fibroblasts
Please give a number only; it is taken to be in %.

Here's what some known entries look like.
O=[N+]([O-])c1ccc(C[Se]c2ncnc3c2ncn3[C@@H]2O[C@H](CO)[C@@H](O)[C@H]2O)cc1 [Compound 24, 6-(p-Nitrobenzyl)selenopurine riboside] = 90.1
O=[N+]([O-])c1ccc(CSc2ncnc3c2ncn3[C@@H]2O[C@H](COP(=O)(O)O)[C@@H](O)[C@H]2O)cc1 = 94.6

### Prompt Bench note: what viability at 48 h, 10 µM did [N-]=[N+]=Nc1ccc(CNc2ncnc3c2ncn3[C@@H]2O[C@H](CO)[C@@H](O)[C@H]2O)cc1 show?
### Response 90.3

---

Molecular target: T. gondii adenosine kinase (Toxoplasma gondii, UniProt Q9TVW2)
Sequence (Q9TVW2 whole entry): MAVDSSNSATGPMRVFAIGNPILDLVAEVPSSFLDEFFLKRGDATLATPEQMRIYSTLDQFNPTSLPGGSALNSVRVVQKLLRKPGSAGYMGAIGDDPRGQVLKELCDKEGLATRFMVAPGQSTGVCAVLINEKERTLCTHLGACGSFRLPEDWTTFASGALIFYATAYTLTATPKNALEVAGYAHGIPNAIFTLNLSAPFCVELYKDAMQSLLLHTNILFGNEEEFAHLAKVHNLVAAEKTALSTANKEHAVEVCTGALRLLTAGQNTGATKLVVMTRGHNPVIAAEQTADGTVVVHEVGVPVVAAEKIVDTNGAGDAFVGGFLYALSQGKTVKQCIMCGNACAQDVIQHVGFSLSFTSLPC
Experiment: biochemical
Method: Preparation of cytosol extracts. […] Adenosine kinase assay. T. gondii adenosine kinase activity was measured by following the formation of [^14 C]AMP from [^14 C]adenosine and ATP. […] Determination and significance of AppKi values. […] It should be noted, however, that the type of inhibition (i.e., competitive, noncompetitive, or uncompetitive) produced by the compounds was not determined, nor were the compounds evaluated as substrates for T. gondii adenosine kinase.
pKi: −log10 of the molar value.
Parameter threshold = 3. Response is 1 when pKi meets or exceeds it, else -1.

Examples from the recorded data:
NC(=O)c1cn([C@@H]2O[C@H](CO)[C@@H](O)[C@H]2O)c2nc[n+]([O-])c(N)c12 = 1
OC[C@H]1O[C@@H](n2cnc3c(NC4CCCCC4)ncnc32)[C@H](O)[C@@H]1O = 1
Nc1ncnc2c1nc(Br)n2[C@@H]1O[C@H](CO)[C@@H](O)[C@H]1O = 1
OC[C@H]1O[C@@H](n2cnc3c2N=CNC[C@H]3O)[C@H](O)[C@@H]1O = -1
COc1ncnc2c1ncn2[C@@H]1O[C@H](CO)[C@@H](O)[C@H]1O = 1

### Prompt hey, is pKi for this one >= 3? NC(=O)c1ncn([C@@H]2O[C@H](CO)[C@@H](O)[C@H]2O)c1N [Compound 123, 5'-Aminoimidazole-4-carboxamide riboside]
### Response -1

---

target: T. gondii adenosine kinase (Toxoplasma gondii); experiment: biochemical; details: relative to reference compound adenosine
Returns: string. Value is 1.0 if measured Decrease in binding to T. gondii adenosine kinase is below 200 fold, and 0.0 if it is greater than or equal to it.

Examples from the recorded data:
Nc1ncnc2c1ncn2C1O[C@H](CO)[C@H](O)[C@@H]1O (stereo partly shown) [Compound 107, Adenine lyxoside] = 1.0
Nc1ncnc2c1ncn2[C@@H]1C=C(CO)[C@@H](O)[C@H]1O [Compound 114, Neplanocin A] = 1.0
C[C@H]1O[C@@H](n2cnc3c(N)ncnc32)[C@H](O)[C@@H]1O [Compound 93, 5'-Deoxyadenosine] = 1.0
Nc1ncnc2nc[nH]c12 [Compound 115, Adenine] = 0.0
Nc1ncnc2c1ncn2[C@@H]1O[C@H](CO)[C@@H](O)[C@@H]1O [Compound 86, Adenine arabinoside (ara-A)] = 0.0

Consider the additional molecule presented here.
### Prompt Field: below-cutoff. Rule: recorded Decrease in binding to T. gondii adenosine kinase strictly less than 200 fold. Subject: Nc1ncnc2c1ncn2[C@H]1C[C@H](O)[C@@H](CO)O1 [Compound 87, 2'-Deoxyadenosine]
### Response 0.0

---

The following molecules are listed with their measured inhibition at 1000 µM values.
biological target: T. gondii adenosine kinase (Toxoplasma gondii); assay: biochemical; conditions: read-out: Inhibition of T. gondii adenosine kinase

Here's what some known entries look like.
Nc1nc2c(ncn2[C@@H]2O[C@H](CO)[C@@H](O)[C@H]2F)c(=O)[nH]1 = < 10%
O=c1[nH]cnc2c1ncn2[C@@H]1O[C@H](CO)[C@@H](O)[C@H]1O = < 10%
O=c1[nH]cnc(NC2C=C(CO)C(O)C2O)c1[N+](=O)[O-] (stereo not shown) = < 10%
Nc1ccnc2c1ncn2[C@@H]1O[C@H](CO)[C@@H](O)[C@H]1O = < 10%
OC[C@H]1O[C@@H](n2cnc3cccnc32)[C@H](O)[C@@H]1O = < 10%
CCCCCCC(C(C)O)n1cnc2c(N)ncnc21 (racemic) [Compound 113, (±)-EHNA] = < 10%

Turning now to a further molecule:
### Prompt Bench note: what inhibition at 1000 µM did CO[C@@H]1[C@H](O)[C@@H](CO)O[C@H]1n1cnc2c(N)ncnc21 show?
### Response < 10%

---

target: T. gondii adenosine kinase (Toxoplasma gondii); assay: biochemical; conditions: AppKi for inhibition of T. gondii adenosine kinase, 5 μM adenosine; ± range, at least two estimations
REPORTED ENDPOINT: Ki (µM)
Please give a number only; it is taken to be in µM.

Here's what some known entries look like.
CC(C)=CCNc1ncnc2c1ncn2[C@@H]1O[C@H](CO)[C@@H](O)[C@H]1O = 51
O=[N+]([O-])c1ccc(CSc2ncnc3c2ncn3[C@@H]2O[C@H](CO)[C@@H](O)[C@H]2O)cc1 = 140

### Prompt # returns recorded Ki (system: T. gondii adenosine kinase (Toxoplasma gondii)) for CN(C)c1ncnc2c1ncn2[C@@H]1O[C@H](CO)[C@@H](N)[C@H]1O
### Response 540

### Prompt # returns recorded Ki (system: T. gondii adenosine kinase (Toxoplasma gondii)) for Nc1ncnc2c1ncn2[C@@H]1O[C@H](CI)[C@@H](O)[C@H]1O
### Response 230

### Prompt # returns recorded Ki (system: T. gondii adenosine kinase (Toxoplasma gondii)) for Nc1ncnc2c([C@@H]3O[C@H](CO)[C@@H](O)[C@H]3O)n[nH]c12
### Response 1400

---

biological target: T. gondii adenosine kinase (Toxoplasma gondii, UniProt Q9TVW2); assay: biochemical
The following molecules are listed with their measured Ki values.
Please give a number only; it is taken to be in µM.

Here's what some known entries look like.
CSc1ncnc2c1nnn2[C@@H]1O[C@H](CO)[C@@H](O)[C@H]1O [Compound 83, 8-Aza-6-methylmercaptopurine riboside] = 130
OC[C@H]1O[C@@H](n2cnc3c(Nc4ccccc4)ncnc32)[C@H](O)[C@@H]1O = 88
Nc1c2ncn([C@@H]3O[C@H](CO)[C@@H](O)[C@H]3O)c2nc[n+]1[O-] = 1230
OC[C@H]1O[C@@H](n2cnc3c(I)ncnc32)[C@H](O)[C@@H]1O = 18
C[C@H]1O[C@@H](n2cnc3c(N)ncnc32)[C@H](O)[C@@H]1O = 40
OC[C@H]1O[C@@H](n2cnc3c(NCc4ccco4)ncnc32)[C@H](O)[C@@H]1O = 180

Turning now to a further molecule:
### Prompt Bench note: what Ki did Nc1ncnc2c1ncn2[C@@H]1O[C@H](CCl)[C@@H](O)[C@H]1O show?
### Response 210

---

experiment: Toxicity of compounds, MTT assay; format: cell-based, human; settings: human, foreskin fibroblasts
REPORTED ENDPOINT: viability at 48 h, 5 µM (%)
Please give a number only; it is taken to be in %.

### Prompt Bench note: what viability at 48 h, 5 µM did O=[N+]([O-])c1ccc(CSc2ncnc3c2ncn3[C@@H]2O[C@H](CO)[C@@H](O)[C@H]2O)cc1 show?
### Response 98.8

---

assay: Toxicity of compounds, MTT assay; type: cell-based, human; settings: human, foreskin fibroblasts
REPORTED ENDPOINT: viability at 48 h, 10 µM (%)
Please give a number only; it is taken to be in %.

### Prompt Bench note: what viability at 48 h, 10 µM did O=[N+]([O-])c1ccc(CSc2ncnc3c2ncn3[C@@H]2O[C@H](CO)[C@@H](O)[C@H]2O)cc1 show?
### Response 97.1

---

target: T. gondii adenosine kinase (Toxoplasma gondii, UniProt Q9TVW2); test: biochemical
The following compounds are listed with their measured Ki values.
Please give a number only; it is taken to be in µM.

Here's what some known entries look like.
OC[C@H]1O[C@@H](n2cnc3c(Cl)ncnc32)[C@H](O)[C@@H]1O [Compound 13, 6-Chloropurine riboside] = 9.5
O=C(Nc1ncnc2c1ncn2[C@H]1C[C@H](O)[C@@H](CO)O1)c1ccccc1 = 590
C/C(=C\CNc1ncnc2c1ncn2[C@@H]1O[C@H](CO)[C@@H](O)[C@H]1O)CO = 280

### Prompt Bench note: what Ki did Nc1nc(NC2C=C(CO)C(O)C2O)c([N+](=O)[O-])c(=O)[nH]1 (stereo not shown) show?
### Response 940
